- assay.target: gp120 envelope glycoprotein (HIV-1, UniProt P04578 P04578:33-511)
- assay.comment: competition; ID50, gp120/CD4 ELISA, preincubated with gp120
- recorded.conditions: tags: gp120 capture ELISA kit
quantity.kind: IC50 (nM)
Record the value in nM, omitting the unit from your answer.

GTGGTGGGTGGGTGGGTGGTGGGTGGTGGTTGTGGGTGGGTGGTG (ssDNA, all PS) [I100-21]    70

With those in mind, consider the next binder.
Briefly, IC50 measured for GTTGGGGGTTGTTGGTGGGGTGGTGG (ssDNA, all PS) [I100-12] : 80
